System: S. aureus strain DSMZ 346
Experiment: MIC determination / bacterial count in CaCO3 slurry with or without lithium ions
Assay type: cell-based
Conditions: S. aureus; Li^+ 329 mM (2305 ppm), Li2CO3
ASSAY_ENDPOINT: MIC ratio (MICwithout Li/MICLi)
Answers are plain numbers.

Batch request: MIC ratio (MICwithout Li/MICLi) for each of the following molecules.
1. N#CSCSC#N [Methylene bis(thiocyanate)]
2. O=S(=O)(C(Cl)(Cl)Cl)C(Cl)(Cl)Cl
3. O=[N+]([O-])C(Br)(CO)CO

Response given:
1: 4.04; 2: 1.33; 3: 6

###

For each of the compounds below, state its MIC ratio (MICwithout Li/MICLi).
Test system: S. aureus strain DSMZ 346
Experiment: MIC determination / bacterial count in CaCO3 slurry with or without lithium ions
Format: cell-based
Details: S. aureus; Li^+ 423 mM (2964 ppm), Li2CO3
Numbers only.

Batch request: MIC ratio (MICwithout Li/MICLi) for each of the following compounds.
1. Cc1cc(O)ccc1Cl
2. O=[N+]([O-])C(Br)(CO)CO

Response given:
1.5
20
